Biological target: alanyl aminopeptidases (APN) (Homo sapiens, UniProt P15144)
Sequence (P15144 whole entry, species assumed): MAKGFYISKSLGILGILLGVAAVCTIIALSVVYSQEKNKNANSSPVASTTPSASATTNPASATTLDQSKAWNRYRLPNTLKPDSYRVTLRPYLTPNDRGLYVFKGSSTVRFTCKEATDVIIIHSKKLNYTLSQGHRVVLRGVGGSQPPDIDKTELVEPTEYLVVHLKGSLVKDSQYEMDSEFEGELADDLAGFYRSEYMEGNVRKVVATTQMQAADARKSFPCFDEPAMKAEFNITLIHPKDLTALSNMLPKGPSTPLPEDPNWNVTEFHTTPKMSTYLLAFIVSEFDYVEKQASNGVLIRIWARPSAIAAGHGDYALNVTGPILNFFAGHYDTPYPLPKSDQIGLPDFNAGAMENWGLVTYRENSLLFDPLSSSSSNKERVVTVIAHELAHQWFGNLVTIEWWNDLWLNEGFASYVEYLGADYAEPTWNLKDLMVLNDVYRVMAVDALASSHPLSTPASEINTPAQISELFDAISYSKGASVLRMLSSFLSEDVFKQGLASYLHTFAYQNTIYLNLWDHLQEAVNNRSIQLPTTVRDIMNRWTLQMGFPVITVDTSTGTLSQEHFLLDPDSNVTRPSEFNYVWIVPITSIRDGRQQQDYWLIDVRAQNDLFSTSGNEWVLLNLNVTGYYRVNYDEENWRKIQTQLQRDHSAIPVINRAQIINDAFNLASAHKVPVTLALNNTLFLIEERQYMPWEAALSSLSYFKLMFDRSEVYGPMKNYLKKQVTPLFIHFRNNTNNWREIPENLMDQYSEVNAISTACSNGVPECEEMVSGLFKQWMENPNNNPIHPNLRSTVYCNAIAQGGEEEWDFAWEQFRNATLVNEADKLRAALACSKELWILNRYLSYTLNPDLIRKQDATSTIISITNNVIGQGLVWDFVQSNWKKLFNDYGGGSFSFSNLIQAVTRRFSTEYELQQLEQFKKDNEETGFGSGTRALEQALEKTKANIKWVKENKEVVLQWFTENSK
Assay: Inhibition of alanyl aminopeptidase enzymatic activity, fluorogenic substrate (Ala)2-rhodamine 110
Format: biochemical
Conditions: Table 4, starred values = ID50; read-out: ID50 APN (values marked with *)
pIC50: −log10 of the molar value.
readout.type: pIC50

// below: answered compounds
O=C(Cc1ccccc1)NCC(=O)N/N=C/c1ccco1 [A4.161]; 4.14
O=C(CNC(=O)c1ccccc1O)N/N=C/c1ccco1 [A4.173]; 4.01

I. COc1ccc(OCC(=O)N/N=C/c2c(Br)cc(Br)c(O)c2Br)cc1 [A4.164]
II. COc1cccc(C(=O)NCC(=O)N/N=C/c2ccc([N+](=O)[O-])o2)c1 [A4.183]
III. Cc1cccc(C(=O)Nc2ccc(C(=O)N/N=C/c3ccc4c(c3)OCO4)cc2)c1 [A4.105]
// ranking: key=pIC50, reverse=True Give the labels in the order specified. III, I, II
(III: 4.47, I: 4.12, II: 3.65)

Sourced from patent US20070037752A1
